tested on: Escherichia coli TOP10; assay: shrunken log2 fold change of peptide-encoding DNA abundance (4.5 h post-induction vs induction); higher = less antimicrobial activity (less host growth inhibition); details: time post-induction: 4.5 h; library: site-saturation at positions 5, 18, 19, 20;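 note: peptides expressed intracellularly from a pBAD plasmid library in pooled LB shake-flask culture, induced with 0.3% L-arabinose, DNA abundance read by NGS, three biological replicates, DESeq2 with apeglm shrinkage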
shrunken log2 fold change: recorded values
# print the numeric value only

RRIRYRPPRLPRPRPRPEYHPRP: -0.0883
RRIRRRPPRLPRPRPRPICTPRP: 0.391
RRIRGRPPRLPRPRPRPEKDPRP: 1.27
RRIRARPPRLPRPRPRPKWYPRP: 0.056
RRIRIRPPRLPRPRPRPGDQPRP: -0.0693
RRIRWRPPRLPRPRPRPTAMPRP: 0.814

Next sequence, shrunken log2 fold change to be filled in.
Indicate the recorded shrunken log2 fold change value for this sequence: RRIRSRPPRLPRPRPRPHKNPRP
-0.283

These measurements were taken from the supplement of paper PMC9112550.
